Exercise: state measured percent inhibition of viability for each of the molecules provided.
Tested on: normal primary NK cells, pool 1 (3 donors) (IL-2 2.5 ng/mL)
experimentalProtocol: percent inhibition of viability; higher = more inhibition
testConditions: 72 h; 100 nM
Give just the number in %; leave the unit off.

Looking for the measured percent inhibition of viability of COc1cc2c(cc1O)CC[C@@H]1[C@@H]2CC[C@]2(C)[C@@H](O)CC[C@@H]12 [2-methoxyestradiol] (max concentration tested 10000 nM) , can you help? -0.63

What would you report for COc1cc2ncnc(Nc3ccc(F)c(Cl)c3)c2cc1OCCCN1CCOCC1 [Gefitinib] (max concentration tested 10000 nM) ? -3.97

What would you report for CO[C@H]1C[C@@H]2CC[C@@H](C)[C@@](O)(O2)C(=O)C(=O)N2CCCC[C@H]2C(=O)O[C@H]([C@H](C)C[C@@H]2CC[C@@H](OC(=O)C(C)(CO)CO)[C@H](OC)C2)CC(=O)[C@H](C)/C=C(\C)[C@@H](O)[C@@H](OC)C(=O)[C@H](C)C[C@H](C)/C=C/C=C/C=C/1C [Temsirolimus] (max concentration tested 100 nM) ? 11.2

What would you report for O=C(Nc1ccncc1)C(=O)c1cn(Cc2ccc(Cl)cc2)c2ccccc12 [Indibulin] (max concentration tested 10000 nM) ? -8.45

What would you report for NC(=O)c1ccc(I)c([N+](=O)[O-])c1 [Iniparib] (max concentration tested 10000 nM) ? 4.22

###

Test system: normal primary NK cells, pool 2 (3 donors) (IL-2 2.5 ng/mL)
experimentalProtocol: percent inhibition of viability; higher = more inhibition
testConditions: 72 h; 10 nM
testReadout: percent inhibition of viability (%)
Give just the number in %; leave the unit off.

Enter reported percent inhibition of viability observed with normal primary NK cells, pool 2 (3 donors) (IL-2 2.5 ng/mL) for Cc1cc(C(=O)NOCCO)c(Nc2ccc(I)cc2F)n(C)c1=O [AZD-8330] (max concentration tested 10000 nM) -3.9

What would you report for FC(F)(F)c1ccc(/C=C/c2nc(COc3ccc(CCCCn4ccnn4)cc3)co2)cc1 [Mubritinib] (max concentration tested 1000 nM) ? 16.6

What would you report for C[C@H]1C[C@@H]2[C@H]([C@@H](O)C[C@@]3(C)[C@H]2CC[C@]3(O)C(=O)CO)[C@@]2(C)C=CC(=O)C=C12 [Methylprednisolone] (max concentration tested 10000 nM) ? 20.1

What would you report for CN(C)c1cc2c(cc1Sc1nc3c(N)nccc3n1CCNCC(C)(C)C)OCO2 [CUDC-305] (max concentration tested 10000 nM) ? 7.74

What would you report for Cc1cc(Nc2cc(CN3CCOCC3)c3nc(C)c(Cc4ccc(Cl)cc4F)n3n2)n[nH]1 [Gandotinib] (max concentration tested 10000 nM) ? -5.04

What would you report for CN1CC[C@H](c2c(O)cc(O)c3c(=O)cc(-c4ccccc4Cl)oc23)[C@H](O)C1 [Alvocidib] (max concentration tested 10000 nM) ? -10.6

What would you report for O=C(O)c1ccc(O)c2ncccc12 [IOX-1] (max concentration tested 100000 nM) ? -7.65

What would you report for Cn1cnc2c(F)c(Nc3ccc(Br)cc3Cl)c(C(=O)NOCCO)cc21 [Selumetinib] (max concentration tested 10000 nM) ? -7.88

What would you report for OC[C@H]1O[C@@H](n2cnc3c2N=CNC[C@H]3O)C[C@@H]1O [Pentostatin] (max concentration tested 10000 nM) ? -12.2

What would you report for COc1cc(F)c(F)c(Nc2ccc(I)cc2F)c1NS(=O)(=O)C1(C[C@H](O)CO)CC1 [Refametinib] (max concentration tested 10000 nM) ? 6.56

What would you report for N#CC(c1ccnc(OCc2ccc(CN3CCOCC3)cc2)n1)c1nc2ccccc2s1 (configuration not stated) [Bentamapimod] (max concentration tested 10000 nM) ? -6.81

What would you report for COc1ccc(C[C@H](NC(=O)[C@H](C)NC(=O)CN2CCOCC2)C(=O)N[C@@H](Cc2ccccc2)C(=O)C2(C)CO2)cc1 (stereo in doubt) [ONX-0914] (max concentration tested 10000 nM) ? 18.2

###

Tested on: normal primary NK cells, pool 2 (3 donors) (IL-2 2.5 ng/mL)
experimentalProtocol: drug sensitivity score (DSS) (DSS units); higher = more sensitive; extreme values may be limits of the assay
testConditions: 72 h
Exercise: state measured drug sensitivity score for each of the compounds provided.

Looking for the measured drug sensitivity score of CC1(C)CCC(CN2CCN(c3ccc(C(=O)NS(=O)(=O)c4ccc(NCC5CCOCC5)c([N+](=O)[O-])c4)c(Oc4cnc5[nH]ccc5c4)c3)CC2)=C(c2ccc(Cl)cc2)C1 [Venetoclax] (max concentration tested 1000 nM) , can you help? 2.56

What would you report for COc1ccc(C[C@H](NC(=O)[C@H](C)NC(=O)CN2CCOCC2)C(=O)N[C@@H](Cc2ccccc2)C(=O)C2(C)CO2)cc1 (stereo in doubt) [ONX-0914] (max concentration tested 10000 nM) ? 30.7

What would you report for CC[C@]1(O)C[C@@H]2CN(CCc3c([nH]c4ccccc34)[C@@](C(=O)OC)(c3cc4c(cc3OC)N(C)[C@H]3[C@@](O)(C(=O)OC)[C@H](OC(C)=O)[C@]5(CC)C=CCN6CC[C@]43[C@@H]65)C2)C1 [Vinblastine] (max concentration tested 1000 nM) ? 4.33

What would you report for CN(C)c1cc2c(cc1Sc1nc3c(N)nccc3n1CCNCC(C)(C)C)OCO2 [CUDC-305] (max concentration tested 10000 nM) ? 17

What would you report for Cc1ccc2nc(CN(CCN(Cc3nc4ccc(C)cc4[nH]3)Cc3nc4ccc(C)cc4[nH]3)Cc3nc4ccc(C)cc4[nH]3)[nH]c2c1 (max concentration tested 50000 nM) ? 3.42

What would you report for COc1cc(Nc2ncc(F)c(Nc3ccc4c(n3)NC(=O)C(C)(C)O4)n2)cc(OC)c1OC [Tamatinib] (max concentration tested 10000 nM) ? 3.61

What would you report for COc1cc2ncnc(Nc3ccc(F)c(Cl)c3)c2cc1OCCCN1CCOCC1 [Gefitinib] (max concentration tested 10000 nM) ? 2.32

What would you report for Cn1c(=O)c(F)c(Nc2ccc(I)cc2F)c2c(=O)n(C[C@@H](O)CO)cnc21 [TAK-733] (max concentration tested 1000 nM) ? 2.88

What would you report for CN1CC[C@H](c2c(O)cc(O)c3c(=O)cc(-c4ccccc4Cl)oc23)[C@H](O)C1 [Alvocidib] (max concentration tested 10000 nM) ? 21.1

What would you report for Cc1cc(C(=O)NOCCO)c(Nc2ccc(I)cc2F)n(C)c1=O [AZD-8330] (max concentration tested 10000 nM) ? 0

What would you report for CN(c1ncccc1CNc1nc(Nc2ccc3c(c2)CC(=O)N3)ncc1C(F)(F)F)S(C)(=O)=O (max concentration tested 10000 nM) ? 4.9

What would you report for CCn1c(-c2nonc2N)nc2c(C#CC(C)(C)O)ncc(OC[C@H]3CCCNC3)c21 (max concentration tested 10000 nM) ? 5.23

###

System: normal NK cells expanded with K562-aAPC
experimentalProtocol: percent inhibition of viability; higher = more inhibition
testConditions: 72 h; IL-2 2.5 ng/mL; 100 nM
Exercise: state measured percent inhibition of viability for each of the molecules provided.
Give just the number in %; leave the unit off.

Looking for the measured percent inhibition of viability of CO[C@H]1C[C@@H]2CC[C@@H](C)[C@@](O)(O2)C(=O)C(=O)N2CCCC[C@H]2C(=O)O[C@H]([C@H](C)C[C@@H]2CC[C@@H](OC(=O)C(C)(CO)CO)[C@H](OC)C2)CC(=O)[C@H](C)/C=C(\C)[C@@H](O)[C@@H](OC)C(=O)[C@H](C)C[C@H](C)/C=C/C=C/C=C/1C [Temsirolimus] (max concentration tested 100 nM) , can you help? 23.3

What would you report for CCc1c2c(nc3ccc(OC(=O)N4CCC(N5CCCCC5)CC4)cc13)-c1cc3c(c(=O)n1C2)COC(=O)[C@]3(O)CC [Irinotecan] (max concentration tested 10000 nM) ? 0.82

What would you report for COc1cccc2c1c(O)c(C(=O)N(C)c1ccc(C(F)(F)F)cc1)c(=O)n2C [Tasquinimod] (max concentration tested 10000 nM) ? 1.21

What would you report for CC1(C)CCC(CN2CCN(c3ccc(C(=O)NS(=O)(=O)c4ccc(NCC5CCOCC5)c([N+](=O)[O-])c4)c(Oc4cnc5[nH]ccc5c4)c3)CC2)=C(c2ccc(Cl)cc2)C1 [Venetoclax] (max concentration tested 1000 nM) ? -4.09

What would you report for CN1CCN(c2cc(C(=O)Nc3ccc4c(c3)-c3c(c(C(N)=O)nn3-c3ccc(F)cc3)CC4)c(Cl)cn2)CC1 [PHA 408] (max concentration tested 10000 nM) ? -1.64

What would you report for CN(C)c1cc2c(cc1Sc1nc3c(N)nccc3n1CCNCC(C)(C)C)OCO2 [CUDC-305] (max concentration tested 10000 nM) ? 18.3

What would you report for CCN1CCN(c2ccc(Nc3cc(N(C)C(=O)Nc4c(Cl)c(OC)cc(OC)c4Cl)ncn3)cc2)CC1 [NVP-BGJ398] (max concentration tested 1000 nM) ? 4.74

What would you report for Cc1cc(Nc2cc(CN3CCOCC3)c3nc(C)c(Cc4ccc(Cl)cc4F)n3n2)n[nH]1 [Gandotinib] (max concentration tested 10000 nM) ? 25.1

What would you report for O=C(O)c1ccc(Nc2ncc3c(n2)-c2ccc(Cl)cc2C(c2c(F)cccc2F)=NC3)cc1 [MLN-8054] (max concentration tested 10000 nM) ? -1.49

What would you report for Cc1[nH]c(/C=C2\C(=O)Nc3ccccc32)c(C)c1CCC(=O)O [Orantinib] (max concentration tested 10000 nM) ? -1.4
